B1: SPOPL (parent)
chain: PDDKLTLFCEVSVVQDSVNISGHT

Variants of: B1
Test: protein stability index of a GFP-peptide fusion (GPS, HEK-293T) (PSI 1-6); higher = more stable;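 note: lentivirally expressed fusions sorted by FACS into six bins by GFP to DsRed ratio, PSI derived from sequencing read proportions per bin multiplied by bin number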
Settings: c terminus: a fixed tail appended
Given measured protein stability index, output t if it is greater than or equal to 3 and f if not.

• L5C = f
• T6Y = f
• G22H = f
• D2R = f
• F8E = t
• S21G = f
• L5E = t
• P1N = f
• P1E = f
• T6S = f
• I20M = f
